- Test system: Escherichia coli TOP10
- Procedure Summary: shrunken log2 fold change of peptide-encoding DNA abundance (4.5 h post-induction vs induction); higher = less antimicrobial activity (less host growth inhibition)
- Condition Notes: time post-induction: 4.5 h; library: site-saturation at positions 5, 18, 19, 20
Decision: shrunken log2 fold change >= 0.03 yields YES, all other cases yield NO.

Please check the record RRIRNRPPRLPRPRPRPKYAPRP and state if its shrunken log2 fold change is at or above 0.03.
NO

###

- Tested on: Escherichia coli TOP10
- Procedure Summary: shrunken log2 fold change of peptide-encoding DNA abundance (4.5 h post-induction vs induction); higher = less antimicrobial activity (less host growth inhibition)
- Condition Notes: time post-induction: 4.5 h; library: site-saturation at positions 5, 18, 19, 20
Decision: shrunken log2 fold change >= 0.005 yields label 1, all other cases yield label 0.

The following sequences have reported results that may help.
>>> class_assignment("RRIRYRPPRLPRPRPRPLTLPRP")
"label 0"
>>> class_assignment("RRIRSRPPRLPRPRPRPPFGPRP")
"label 1"
>>> class_assignment("RRIRNRPPRLPRPRPRPYEQPRP")
"label 0"
>>> class_assignment("RRIRQRPPRLPRPRPRPWLVPRP")
"label 0"
>>> class_assignment("RRIRWRPPRLPRPRPRPQMDPRP")
"label 0"

Please check the record RRIRSRPPRLPRPRPRPRSIPRP and state if its shrunken log2 fold change is at or above 0.005.
label 0

For RRIRTRPPRLPRPRPRPWIPPRP then?
label 0

For RRIRTRPPRLPRPRPRPSAFPRP then?
label 0

For RRIRRRPPRLPRPRPRPARWPRP then?
label 1

For RRIRPRPPRLPRPRPRPPRKPRP then?
label 1

###

- System: Escherichia coli TOP10
- Procedure Summary: shrunken log2 fold change of peptide-encoding DNA abundance (4.5 h post-induction vs induction); higher = less antimicrobial activity (less host growth inhibition)
- Condition Notes: time post-induction: 4.5 h; library: site-saturation at positions 5, 18, 19, 20
Decision: shrunken log2 fold change >= 0.04 yields Y, all other cases yield N.

Please check the record RRIRQRPPRLPRPRPRPKRWPRP and state if its shrunken log2 fold change is at or above 0.04.
Y

###

- System: Escherichia coli TOP10
- Procedure Summary: shrunken log2 fold change of peptide-encoding DNA abundance (4.5 h post-induction vs induction); higher = less antimicrobial activity (less host growth inhibition)
- Condition Notes: time post-induction: 4.5 h; library: site-saturation at positions 5, 18, 19, 20
Consider the following sequences; for each one, report its shrunken log2 fold change.
Give bare numbers.

Take a look at these entries with their results.
>>> observed_result("RRIRGRPPRLPRPRPRPPNDPRP")
0.76
>>> observed_result("RRIRTRPPRLPRPRPRPANPPRP")
0.0504
>>> observed_result("RRIRHRPPRLPRPRPRPSIRPRP")
-0.345

Now take the following sequence into account.
Please give the measured shrunken log2 fold change for this sequence: RRIRYRPPRLPRPRPRPVPHPRP
-0.262

###

Consider the following sequences; for each one, report its shrunken log2 fold change.
- Test system: Escherichia coli TOP10
- Procedure Summary: shrunken log2 fold change of peptide-encoding DNA abundance (4.5 h post-induction vs induction); higher = less antimicrobial activity (less host growth inhibition)
- Condition Notes: time post-induction: 4.5 h; library: site-saturation at positions 5, 18, 19, 20

Take a look at these entries with their results.
>>> observed_result("RRIRPRPPRLPRPRPRPERCPRP")
0.271
>>> observed_result("RRIRWRPPRLPRPRPRPDDKPRP")
-0.139
>>> observed_result("RRIRKRPPRLPRPRPRPFEDPRP")
-0.136
>>> observed_result("RRIRVRPPRLPRPRPRPYPPPRP")
-0.103
>>> observed_result("RRIRERPPRLPRPRPRPGTHPRP")
-0.394
>>> observed_result("RRIRFRPPRLPRPRPRPCGHPRP")
-0.129

Record shrunken log2 fold change per entry; entries follow.
1. RRIRHRPPRLPRPRPRPANLPRP
2. RRIRCRPPRLPRPRPRPEEQPRP
3. RRIRNRPPRLPRPRPRPWKRPRP
4. RRIRDRPPRLPRPRPRPSPEPRP
5. RRIRLRPPRLPRPRPRPWYAPRP

-0.00674
-0.0372
-0.0326
0.778
-0.171

Record shrunken log2 fold change per entry; entries follow.
1. RRIRHRPPRLPRPRPRPCRQPRP
2. RRIRRRPPRLPRPRPRPFSSPRP
3. RRIRRRPPRLPRPRPRPFCSPRP
4. RRIRLRPPRLPRPRPRPYVCPRP
5. RRIRERPPRLPRPRPRPLICPRP
6. RRIRLRPPRLPRPRPRPLTWPRP
7. RRIRMRPPRLPRPRPRPETVPRP

1: -0.035; 2: -0.0604; 3: -0.0439; 4: -0.0658; 5: -0.74; 6: 0.0168; 7: 2.2

Record shrunken log2 fold change per entry; entries follow.
1. RRIRLRPPRLPRPRPRPNFVPRP
2. RRIRNRPPRLPRPRPRPYLMPRP

-0.196
-0.287

###

- System: Escherichia coli TOP10
- Procedure Summary: shrunken log2 fold change of peptide-encoding DNA abundance (4.5 h post-induction vs induction); higher = less antimicrobial activity (less host growth inhibition)
- Condition Notes: time post-induction: 4.5 h; library: site-saturation at positions 5, 18, 19, 20
Decision: shrunken log2 fold change >= 0.003 yields TRUE, all other cases yield FALSE.

The following sequences have reported results that may help.
>>> class_assignment("RRIRSRPPRLPRPRPRPWSVPRP")
"FALSE"
>>> class_assignment("RRIRDRPPRLPRPRPRPAFEPRP")
"TRUE"

Please check the record RRIRKRPPRLPRPRPRPAFVPRP and state if its shrunken log2 fold change is at or above 0.003.
TRUE

For RRIRSRPPRLPRPRPRPEIQPRP then?
FALSE

For RRIRQRPPRLPRPRPRPHGRPRP then?
FALSE

For RRIRCRPPRLPRPRPRPEERPRP then?
FALSE

For RRIRYRPPRLPRPRPRPKYEPRP then?
FALSE

For RRIRLRPPRLPRPRPRPKDFPRP then?
TRUE

###

Consider the following sequences; for each one, report its shrunken log2 fold change.
- Tested on: Escherichia coli TOP10
- Procedure Summary: shrunken log2 fold change of peptide-encoding DNA abundance (4.5 h post-induction vs induction); higher = less antimicrobial activity (less host growth inhibition)
- Condition Notes: time post-induction: 4.5 h; library: site-saturation at positions 5, 18, 19, 20
One number for each entry.

>>> observed_result("RRIRLRPPRLPRPRPRPSDFPRP")
-0.131
>>> observed_result("RRIRMRPPRLPRPRPRPQCHPRP")
0.0857
>>> observed_result("RRIRIRPPRLPRPRPRPFFPPRP")
-0.264

Record shrunken log2 fold change per entry; entries follow.
1. RRIRNRPPRLPRPRPRPSNVPRP
2. RRIRSRPPRLPRPRPRPTRMPRP

[-0.615, 1.03]

Record shrunken log2 fold change per entry; entries follow.
1. RRIRFRPPRLPRPRPRPFNAPRP
2. RRIRQRPPRLPRPRPRPRMCPRP
3. RRIRPRPPRLPRPRPRPYCYPRP
4. RRIRGRPPRLPRPRPRPGVFPRP
5. RRIRSRPPRLPRPRPRPSKHPRP
6. RRIRIRPPRLPRPRPRPVGTPRP

1: -0.415; 2: 0.0318; 3: -0.798; 4: 0.465; 5: -0.461; 6: -0.126

###

Consider the following sequences; for each one, report its shrunken log2 fold change.
- Tested on: Escherichia coli TOP10;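 note: peptides expressed intracellularly from a pBAD plasmid library in pooled LB shake-flask culture, induced with 0.3% L-arabinose, DNA abundance read by NGS, three biological replicates, DESeq2 with apeglm shrinkage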
- Procedure Summary: shrunken log2 fold change of peptide-encoding DNA abundance (4.5 h post-induction vs induction); higher = less antimicrobial activity (less host growth inhibition)
- Condition Notes: time post-induction: 4.5 h; library: site-saturation at positions 5, 18, 19, 20
Answers are plain numbers.

>>> observed_result("RRIRTRPPRLPRPRPRPEGVPRP")
0.122
>>> observed_result("RRIRDRPPRLPRPRPRPVVKPRP")
0.0734
>>> observed_result("RRIRDRPPRLPRPRPRPIWQPRP")
0.211
>>> observed_result("RRIRYRPPRLPRPRPRPDQLPRP")
-0.122
>>> observed_result("RRIRRRPPRLPRPRPRPNFQPRP")
0.253

Record shrunken log2 fold change per entry; entries follow.
1. RRIRWRPPRLPRPRPRPNQDPRP
2. RRIRNRPPRLPRPRPRPAEDPRP
3. RRIRTRPPRLPRPRPRPAQDPRP
4. RRIRLRPPRLPRPRPRPDRPPRP
5. RRIRMRPPRLPRPRPRPMCKPRP

1. 0.0957
2. 0.0275
3. 0.111
4. 0.265
5. 0.00898
